- SUBJECT_OF_TEST: CCR5 (Homo sapiens)
- Construct: purchased Promega (in-house HiBiT-GPCR construct library, NanoBRET)
- Sequence (P51681 whole entry): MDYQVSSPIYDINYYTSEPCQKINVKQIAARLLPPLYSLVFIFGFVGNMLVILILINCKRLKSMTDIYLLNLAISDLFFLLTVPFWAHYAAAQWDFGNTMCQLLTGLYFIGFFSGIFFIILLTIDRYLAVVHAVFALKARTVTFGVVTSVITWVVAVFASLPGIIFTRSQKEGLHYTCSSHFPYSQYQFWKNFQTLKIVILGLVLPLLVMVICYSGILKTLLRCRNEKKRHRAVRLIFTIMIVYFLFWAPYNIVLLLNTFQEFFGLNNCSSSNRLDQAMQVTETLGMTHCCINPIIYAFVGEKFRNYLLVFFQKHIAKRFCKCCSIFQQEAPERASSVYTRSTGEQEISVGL
- EXPERIMENT_NOTES: NanoBRET screen HiBiT-CCR5 in HEK293
- Assay type: binding
- REPORTED_CONDITIONS: CCR5; tracer 1μM
PROPERTY_LABEL: NanoBRET Fold Response

# COMPOUND, SUBJECT_OF_TEST, PROPERTY_LABEL, VALUE_OBSERVED
measured = [
    ("COc1ccccc1N1CCN(CCCCN2C(=O)c3ccc(CNC(=O)CCOCCNC(=O)c4ccc(CNC(=O)CCc5ccc6n5[B-](F)(F)[N+]5=C(c7ccc[nH]7)C=CC5=C6)cc4)cc3C2=O)CC1 [NAN-190-3-NB590]", "CCR5 (Homo sapiens)", "NanoBRET Fold Response", 1.03),
]

Input Cc1cc2c(s1)Nc1ccccc1N=C2N1CCN(CCCNC(=O)CCOCCOCCOCCOCCNC(=O)CCc2ccc3n2[B-](F)(F)[N+]2=C(c4ccc[nH]4)C=CC2=C3)CC1 [Olanzapine-a-2-NB590] . Output NanoBRET Fold Response: 0.89

Note to self: NanoBRET Fold Response recorded for O=C(CCc1ccc2n1[B-](F)(F)[N+]1=C(c3ccc[nH]3)C=CC1=C2)NCc1ccc(C(=O)NCCOCCC(=O)N[C@@H]2CC[C@@]3(O)[C@H]4Cc5ccc(O)c6c5[C@@]3(CCN4CC3CC3)[C@H]2O6)cc1 [Naltrexone-3-NB590] was 1.11

In plain terms, COc1ccccc1N1CCN(CCCCN2C(=O)c3ccc(CNC(=O)CCOCCOCCOCCOCCNC(=O)CCc4ccc5n4[B-](F)(F)[N+]4=C(c6ccc[nH]6)C=CC4=C5)cc3C2=O)CC1 [NAN-190-2-NB590] has a documented NanoBRET Fold Response of 1.03

Data point: CC(C)N(CC[C@H](c1ccccc1)c1cc(CCNC(=O)c2ccc(CNC(=O)CCc3ccc4n3[B-](F)(F)[N+]3=C(c5ccc[nH]5)C=CC3=C4)cc2)ccc1O)C(C)C [Tolterodine-BZ-NB590] ; NanoBRET Fold Response = 0.97

---

Parameter: NanoBRET Fold Response. Scope: all listed entries.
- SUBJECT_OF_TEST: F2RL1 (Homo sapiens, UniProt P55085)
- Construct: purchased Promega (in-house HiBiT-GPCR construct library, NanoBRET)
- Sequence (P55085 26-397): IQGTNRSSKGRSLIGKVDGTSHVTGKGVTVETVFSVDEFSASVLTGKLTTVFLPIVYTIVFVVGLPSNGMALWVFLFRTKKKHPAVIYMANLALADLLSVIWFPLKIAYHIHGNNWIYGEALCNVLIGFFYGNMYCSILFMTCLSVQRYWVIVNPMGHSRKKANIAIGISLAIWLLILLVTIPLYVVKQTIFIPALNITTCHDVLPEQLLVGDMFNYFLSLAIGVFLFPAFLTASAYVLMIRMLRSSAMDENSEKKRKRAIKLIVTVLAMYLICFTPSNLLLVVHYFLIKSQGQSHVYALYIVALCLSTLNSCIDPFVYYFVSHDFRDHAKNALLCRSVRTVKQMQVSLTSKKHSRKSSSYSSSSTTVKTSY
- EXPERIMENT_NOTES: NanoBRET screen HiBiT-F2RL1 in HEK293
- Type: binding
- REPORTED_CONDITIONS: F2RL1; tracer 1μM
// print number alone

# SMILES_REPR, VALUE_OBSERVED
records = [
    ("O=C(CCc1ccc2n1[B-](F)(F)[N+]1=C(c3ccc[nH]3)C=CC1=C2)NCCOCCOCCNC(=O)OCCOCCN1CCN(C2=Nc3ccccc3Sc3ccccc32)CC1", 0.71),
    ("CC(C)N(CC[C@H](c1ccccc1)c1cc(CCNC(=O)c2ccc(CNC(=O)CCc3ccc4n3[B-](F)(F)[N+]3=C(c5ccc[nH]5)C=CC3=C4)cc2)ccc1O)C(C)C", 0.98),
]

The record that follows has no NanoBRET Fold Response shown yet.
Bench note, F2RL1 (Homo sapiens, UniProt P55085): CC(C)N(CC[C@H](c1ccccc1)c1cc(CCNC(=O)CCOCCOCCOCCOCCNC(=O)CCc2ccc3n2[B-](F)(F)[N+]2=C(c4ccc[nH]4)C=CC2=C3)ccc1O)C(C)C , NanoBRET Fold Response reads 1.03

---

- SUBJECT_OF_TEST: CCKAR (Homo sapiens, UniProt P32238)
- Construct: purchased Promega (in-house HiBiT-GPCR construct library, NanoBRET)
- Sequence (P32238 whole entry): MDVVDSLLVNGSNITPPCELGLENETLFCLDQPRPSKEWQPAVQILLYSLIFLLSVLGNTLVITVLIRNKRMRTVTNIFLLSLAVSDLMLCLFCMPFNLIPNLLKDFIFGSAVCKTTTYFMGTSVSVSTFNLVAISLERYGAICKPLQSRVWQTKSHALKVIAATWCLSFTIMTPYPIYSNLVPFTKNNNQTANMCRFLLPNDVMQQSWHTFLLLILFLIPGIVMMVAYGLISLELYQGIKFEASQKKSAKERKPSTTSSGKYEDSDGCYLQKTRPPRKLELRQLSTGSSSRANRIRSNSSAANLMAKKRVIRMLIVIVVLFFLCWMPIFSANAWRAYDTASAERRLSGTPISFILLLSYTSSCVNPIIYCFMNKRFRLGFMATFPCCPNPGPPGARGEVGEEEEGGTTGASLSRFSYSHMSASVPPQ
- EXPERIMENT_NOTES: NanoBRET screen HiBiT-CCKAR in HEK293
- Type: binding
- REPORTED_CONDITIONS: CCKAR; tracer 1μM
Entries and their NanoBRET Fold Response values follow.
The answer should be written as a number, with no unit following it.

Recorded results for 2 compounds are shown here.
# COMPOUND, NanoBRET Fold Response
measured = [
    ("O=C(CCOCCOCCOCCOCCNC(=O)CCc1ccc2n1[B-](F)(F)[N+]1=C(c3ccc[nH]3)C=CC1=C2)NCCCN1CCN(C2=Nc3ccccc3Oc3ccc(Cl)cc32)CC1 [Loxapine-a-2-NB590]", 0.99),
    ("CC(C)N(CC[C@H](c1ccccc1)c1cc(CCNC(=O)CCOCCOCCOCCOCCNC(=O)CCc2ccc3n2[B-](F)(F)[N+]2=C(c4ccc[nH]4)C=CC2=C3)ccc1O)C(C)C [Tolterodine-2-NB590]", 1.01),
]

In plain terms, Cc1nc2n(c(=O)c1CCN1CCC(c3noc4cc(F)ccc34)CC1)CCCC2OC(=O)NCCOCCOCCOCCOCCNC(=O)CCc1ccc2n1[B-](F)(F)[N+]1=C(c3ccc[nH]3)C=CC1=C2 (stereo not drawn) [Risperidone-2-NB590] has a documented NanoBRET Fold Response of 0.99

---

- SUBJECT_OF_TEST: HRH3 (Homo sapiens, UniProt Q9Y5N1)
- Construct: purchased Promega (in-house HiBiT-GPCR construct library, NanoBRET)
- Sequence (Q9Y5N1 whole entry): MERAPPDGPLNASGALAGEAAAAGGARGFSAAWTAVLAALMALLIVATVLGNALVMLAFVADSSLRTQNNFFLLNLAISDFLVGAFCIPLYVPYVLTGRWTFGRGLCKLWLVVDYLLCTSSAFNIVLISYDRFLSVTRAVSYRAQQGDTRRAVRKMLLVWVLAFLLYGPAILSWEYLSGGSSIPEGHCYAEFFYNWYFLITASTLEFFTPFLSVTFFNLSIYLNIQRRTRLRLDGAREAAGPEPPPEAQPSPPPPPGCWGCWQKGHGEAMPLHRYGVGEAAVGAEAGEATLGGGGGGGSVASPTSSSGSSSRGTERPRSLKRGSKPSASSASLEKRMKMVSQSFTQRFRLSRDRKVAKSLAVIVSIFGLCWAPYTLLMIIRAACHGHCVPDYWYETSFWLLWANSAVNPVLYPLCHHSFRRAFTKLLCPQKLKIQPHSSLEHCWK
- EXPERIMENT_NOTES: NanoBRET screen HiBiT-HRH3 in HEK293
- Type: binding
- REPORTED_CONDITIONS: HRH3; tracer 0.1μM
Each entry below carries its recorded NanoBRET Fold Response.
Please reply with the value in numeric form only.

# COMPOUND, NanoBRET Fold Response
records = [
    ("COc1ccccc1N1CCN(CCCCN2C(=O)c3ccc(CNC(=O)CCOCCOCCOCCOCCNC(=O)CCc4ccc5n4[B-](F)(F)[N+]4=C(c6ccc[nH]6)C=CC4=C5)cc3C2=O)CC1 [NAN-190-2-NB590]", 0.98),
    ("O=C(CCc1ccc2n1[B-](F)(F)[N+]1=C(c3ccc[nH]3)C=CC1=C2)NCc1ccc(C(=O)NCCOCCC(=O)N[C@@H]2CC[C@@]3(O)[C@H]4Cc5ccc(O)c6c5[C@@]3(CCN4CC3CC3)[C@H]2O6)cc1 [Naltrexone-3-NB590]", 0.76),
    ("COc1ccccc1N1CCN(CCCCN2C(=O)c3ccc(CNC(=O)CCOCCNC(=O)c4ccc(CNC(=O)CCc5ccc6n5[B-](F)(F)[N+]5=C(c7ccc[nH]7)C=CC5=C6)cc4)cc3C2=O)CC1 [NAN-190-3-NB590]", 1.38),
    ("Cc1nc2n(c(=O)c1CCN1CCC(c3noc4cc(F)ccc34)CC1)CCCC2OC(=O)NCCOCCOCCOCCOCCNC(=O)CCc1ccc2n1[B-](F)(F)[N+]1=C(c3ccc[nH]3)C=CC1=C2 (centres unmarked) [Risperidone-2-NB590]", 1.07),
    ("Cc1cc2c(s1)Nc1ccccc1N=C2N1CCN(CCCNC(=O)CCOCCOCCOCCOCCNC(=O)CCc2ccc3n2[B-](F)(F)[N+]2=C(c4ccc[nH]4)C=CC2=C3)CC1 [Olanzapine-a-2-NB590]", 1.06),
]

In plain terms, CC(C)N(CC[C@H](c1ccccc1)c1cc(CCNC(=O)c2ccc(CNC(=O)CCc3ccc4n3[B-](F)(F)[N+]3=C(c5ccc[nH]5)C=CC3=C4)cc2)ccc1O)C(C)C [Tolterodine-BZ-NB590] has a documented NanoBRET Fold Response of 1.16

For this compound ( N#CN=C(NCCCOc1cccc(CN2CCCCC2)c1)NCCNC(=O)CCOCCOCCOCCOCCNC(=O)CCc1ccc2n1[B-](F)(F)[N+]1=C(c3ccc[nH]3)C=CC1=C2 [Aminopotentidine-2-NB590] ), measured NanoBRET Fold Response is 2.54

What the record says about CC(C)N(CC[C@H](c1ccccc1)c1cc(CCNC(=O)CCOCCOCCOCCOCCNC(=O)CCc2ccc3n2[B-](F)(F)[N+]2=C(c4ccc[nH]4)C=CC2=C3)ccc1O)C(C)C [Tolterodine-2-NB590] : NanoBRET Fold Response is 1.49

For record O=C(CCOCCOCCOCCOCCNC(=O)CCc1ccc2n1[B-](F)(F)[N+]1=C(c3ccc[nH]3)C=CC1=C2)NCCCN1CCN(C2=Nc3ccccc3Oc3ccc(Cl)cc32)CC1 [Loxapine-a-2-NB590] the listed NanoBRET Fold Response is 1.06

Short answer for O=C(CCc1ccc2n1[B-](F)(F)[N+]1=C(c3ccc[nH]3)C=CC1=C2)NCCOCCOCCNC(=O)OCCOCCN1CCN(C2=Nc3ccccc3Sc3ccccc32)CC1 [Quetiapine-a-2-NB590] : NanoBRET Fold Response was 1.09

Lookup result for CCCn1c(=O)c2[nH]c(-c3ccc(OCC(=O)NCCNC(=O)CCOCCNC(=O)c4ccc(CNC(=O)CCc5ccc6n5[B-](F)(F)[N+]5=C(c7ccc[nH]7)C=CC5=C6)cc4)cc3)nc2n(CCC)c1=O [XAC-3-NB590] ; measured NanoBRET Fold Response: 0.81
